System: Staphylococcus sp.
assay.remarks: in vitro antibacterial evaluation, MIC by broth dilution
Format: cell-based
condition.summary: strain GC 4548; broth dilution, 18 hours at 35° C.
quantity: MIC Coagulase Negative Staphylococcus (GC 4548)

compound: CCC(=O)Nc1cc(CC2NC(=O)C(C(C)c3ccccc3)NC(=O)CNC(=O)C(CO)NC(=O)C(C(O)C3CNC(=N)N3C3OC(CO)C(O)C(O)C3O)NC(=O)C(C(O)C3CNC(=N)N3)NC2=O)ccc1O (stereo not drawn)
assayed.target: Staphylococcus sp.
reported.value: >128 µg/mL
--
compound: CC(c1ccccc1)C1NC(=O)CNC(=O)C(CO)NC(=O)C(C(O)C2CNC(=NCc3ccccc3)N2C2OC(CO)C(O)C(O)C2O)NC(=O)C(C(O)C2CNC(=N)N2)NC(=O)C(Cc2ccc(OC3OC(CO)C(OC4OC5COC6(OC5C(O)C4O)C4CC5CC(C4)CC6C5)C(O)C3O)cc2)NC1=O (stereo not drawn)
assayed.target: Staphylococcus sp.
reported.value: 2 to 4 µg/mL
--
compound: CC(c1ccccc1)C1NC(=O)CNC(=O)C(CO)NC(=O)C(C(O)C2CN(c3ncccn3)C(=N)N2C2OC(CO)C(O)C(O)C2O)NC(=O)C(C(O)C2CNC(=Nc3ncccn3)N2)NC(=O)C(Cc2ccc(OC3OC(CO)C(OC4OC(CO)C(O)C(O)C4O)C(O)C3O)cc2)NC1=O (stereo not drawn)
assayed.target: Staphylococcus sp.
reported.value: >128 µg/mL
